# key: entry, value: inhibition
test system: Purine nucleoside phosphorylase (Toxoplasma gondii); test: Inhibition of Toxoplasma gondii purine nucleoside phosphorylase from virulent strain RH at 4 mM
Give the value, in units of %, as a plain number.

Example cases with answers are listed next.
> print(dat)
                        test.smiles  experimental.endpoint  readout.unit  reported
1  Cc1nc2c(n1Cc1ccccc1)C(=O)C=CC2=O             inhibition             %        82
2             Cn1cnc2c1C(=O)C=CC2=O             inhibition             %        85

Short answer on Purine nucleoside phosphorylase (Toxoplasma gondii) for O=C1C=CC(=O)c2[nH]cnc21 , inhibition: 68
